B1: FAM107A (parent)
chain: HRRGLGVDSKPELQRVLEHRRRNQ

variants of: B1; assay: protein stability index of a GFP-peptide fusion (GPS, HEK-293T) (PSI 1-6); higher = more stable; details: c terminus: a fixed tail appended;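 note: lentivirally expressed fusions sorted by FACS into six bins by GFP to DsRed ratio, PSI derived from sequencing read proportions per bin multiplied by bin number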
Listed below: protein stability index values for each entry.
// response body must contain only the number

Worked cases, protein stability index given:
CRRGLGVDSKPELQRVLEHRRRNQ [H1C]
3.42
HRRGLGVDSLPELQRVLEHRRRNQ [K10L]
2.36

Now take the following variant into account.
Inquiry: protein stability index for HRRGLGVESKPELQRVLEHRRRNQ [D8E] ?
Reply text: 4.59
